METRIC: melting point

Nc1c(NCC(=O)c2ccc(Cl)cc2)c(Br)c2ccccc2c1Br [Compound 8]: 225 to 227 °C
CCOC(=O)C(C#N)=C(c1ccc(O)c(OC)c1)N1C=C(c2ccc(Cl)cc2)Nc2cc3ccccc3cc21 [Compound 5]: 146 to 148 °C

Continue with the next compound.
melting point lookup needed for Clc1ccc(C2=Nc3cc4ccccc4cc3NC2)cc1 [Compound 2] , thanks. 195 to 197 °C

Each recorded value in this set is attributed to paper PMC8466781.
